# experimentalSystem: GST-TIE2 (intracellular domains of human TIE2) (Homo sapiens)
# Sequence (Q02763 762-1104): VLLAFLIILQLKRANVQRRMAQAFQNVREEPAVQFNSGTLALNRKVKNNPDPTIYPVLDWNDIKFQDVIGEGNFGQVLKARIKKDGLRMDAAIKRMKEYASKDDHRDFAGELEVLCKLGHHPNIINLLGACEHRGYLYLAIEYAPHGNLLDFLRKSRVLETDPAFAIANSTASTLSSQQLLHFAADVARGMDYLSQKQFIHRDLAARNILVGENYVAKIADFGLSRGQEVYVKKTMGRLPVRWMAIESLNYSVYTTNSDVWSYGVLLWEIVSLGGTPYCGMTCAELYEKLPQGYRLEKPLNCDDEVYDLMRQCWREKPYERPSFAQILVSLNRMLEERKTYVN
# assayMethodText: TIE-2 enzyme assay (TIE2-E), LANCE method
# measurementSetup: 80 uM ATP
pIC50: −log10 of the molar value. Counter-ions that a name gives are not always drawn.
assayMetric: pIC50

* COC(=O)Nc1nc2cc(Oc3ccc(NC(=O)Nc4cc(F)cc(C(F)(F)F)c4)cc3)ccc2[nH]1 | > 7.00
* CN(C)CCNc1nc2cc(Oc3ccc(NC(=O)Nc4cc(C(F)(F)F)ccc4F)cc3)ccc2[nH]1 | 6.00 to 7.00
* COC(=O)Nc1nc2ccc(Sc3ccc(NC(=O)Nc4cccc(C(F)(F)F)c4)cc3)cc2[nH]1 | > 7.00
* COC(=O)Nc1nc2cc(Oc3ccc(NC(=O)Nc4cccc(Br)c4)cc3)ccc2[nH]1 | > 7.00
* COC(=O)Nc1nc2ccc(Oc3ccc(NC(=O)Nc4cc(C(F)(F)F)ccc4F)cc3)cc2o1 | > 7.00
* O=C1CCn2c(nc3ccc(Oc4ccc(NC(=O)Nc5cc(C(F)(F)F)ccc5F)cc4)nc32)N1 | > 7.00
* COC(=O)Nc1nc2cc(Oc3ccc(NC(=O)Nc4cc(Cl)ccc4Cl)cc3)ccc2[nH]1 | > 7.00
* COC(=O)Nc1nc2cc(Oc3ccc(NC(=O)Nc4cc(F)ccc4F)cc3)ccc2[nH]1 | 6.00 to 7.00

// pIC50 lookup, compound = NCC(=O)Nc1nc2cc(Oc3ccc(NC(=O)Nc4cc(C(F)(F)F)ccc4F)cc3)ccc2[nH]1 [Example 30, dihydrochloride] , result: > 7.00

Noted for CC(C)(C)OC(=O)Nc1nc2cc(Oc3ccc(NC(=O)Nc4cc(C(F)(F)F)ccc4F)cc3)ccc2[nH]1 : its pIC50 reads > 7.00

get_value(item= CN1CCN(CCNc2nc3cc(Oc4ccc(NC(=O)Nc5cc(C(F)(F)F)ccc5F)cc4)ccc3[nH]2)CC1 , readout=pIC50) returns 6.00 to 7.00

// sample COC(=O)Nc1nc2cc(Oc3ccc(NC(=O)Nc4cccc(SC(F)(F)F)c4)cc3)ccc2[nH]1 , its pIC50 was > 7.00

Lab note: COC(=O)Nc1nc2c(Br)cc(Oc3ccc(NC(=O)Nc4cc(C(F)(F)F)ccc4F)cc3)cc2s1.Cl [Example 65, hydrochloride] gave pIC50 of > 7.00

The measured pIC50 associated with CN1CCN(CC(=O)Nc2nc3ccc(Oc4ccc(NC(=O)Nc5cc(C(F)(F)F)ccc5F)cc4)cc3[nH]2)CC1 reads > 7.00

Consider COC(=O)Nc1nc2ccc(Oc3ccc(NC(=O)Nc4cc(C(F)(F)F)ccc4F)cc3)cc2n1CCN(C)C . Its measured pIC50 is > 7.00

Per the record, COC(=O)Nc1nc2cc(Oc3ccc(NC(=O)Nc4cccc(C(C)(C)C)c4)cc3)ccc2[nH]1 has pIC50 of > 7.00
